meta.source: patent US20240199542A1

Tested on: Echinochloa crus-galli (ECHCG)
Assay: Herbicidal post-emergence action
Type: in vivo
Details: 1280 g/ha, assessed after ca. 3 weeks
Listed next: entries and their corresponding Post-emergence activity against ECHCG.

[
  {
    "molecule": "CC1(C)CCC(=O)C(C(=O)CC2CCC(=O)N2Cc2cccc(F)c2F)C1=O (racemic)",
    "Post-emergence activity against ECHCG [%]": 90
  },
  {
    "molecule": "CC(C)OC(=O)CC1CCC(=O)N1Cc1cccc(F)c1F (racemic)",
    "Post-emergence activity against ECHCG [%]": 90
  },
  {
    "molecule": "CS(=O)(=O)CCOC(=O)CC1CCC(=O)N1Cc1cccc(F)c1F (racemic)",
    "Post-emergence activity against ECHCG [%]": 100
  },
  {
    "molecule": "CCOC(=O)CC1CCC(=O)N1Cc1cccc(F)c1F (racemic)",
    "Post-emergence activity against ECHCG [%]": 80
  },
  {
    "molecule": "Cc1ccc(OCCOC(=O)CC2CCC(=O)N2Cc2cccc(F)c2F)cc1 (stereo not drawn)",
    "Post-emergence activity against ECHCG [%]": 90
  },
  {
    "molecule": "O=C(CC1CCC(=O)N1Cc1cccc(F)c1F)OC1CCC1 (racemic)",
    "Post-emergence activity against ECHCG [%]": 90
  },
  {
    "molecule": "O=C(O)C1CCCN1C(=O)CC1CCC(=O)N1Cc1cccc(F)c1F (racemic)",
    "Post-emergence activity against ECHCG [%]": 80
  },
  {
    "molecule": "O=C(CC1CCC(=O)N1Cc1cccc(F)c1F)OCCSc1ccccc1 (racemic)",
    "Post-emergence activity against ECHCG [%]": 90
  },
  {
    "molecule": "CCS(=O)(=O)NC(=O)CC1CCC(=O)N1Cc1cccc(F)c1F (racemic)",
    "Post-emergence activity against ECHCG [%]": 80
  }
]

###

Tested on: Avena fatua (AVEFA)
Assay: Herbicidal pre-emergence action
Type: in vivo
Settings: 1280 g/ha, graded after ca. 3 weeks
Listed next: entries and their corresponding Pre-emergence activity against AVEFA.

[
  {
    "compound": "CC[C@H](C)[C@H](NC(=O)CC1CCC(=O)N1Cc1cccc(F)c1F)C(=O)O (single isomer, unassigned) [Example I-011]",
    "Pre-emergence activity against AVEFA (%)": 90
  },
  {
    "compound": "COC(=O)CN(C)C(=O)CC1CCC(=O)N1Cc1cccc(F)c1F (racemic) [Example I-053]",
    "Pre-emergence activity against AVEFA (%)": 90
  },
  {
    "compound": "CC(C)CC(NC(=O)CC1CCC(=O)N1Cc1cccc(F)c1F)C(=O)O (mixture of isomers) [Example I-045]",
    "Pre-emergence activity against AVEFA (%)": 90
  },
  {
    "compound": "CCCC(C)OC(=O)CC1CCC(=O)N1Cc1cccc(F)c1F (racemic) [Example I-028]",
    "Pre-emergence activity against AVEFA (%)": 100
  },
  {
    "compound": "COC(=O)[C@H](Cc1c[nH]cn1)NC(=O)CC1CCC(=O)N1Cc1cccc(F)c1F (single isomer, unassigned) [Example I-037]",
    "Pre-emergence activity against AVEFA (%)": 100
  },
  {
    "compound": "Cc1nonc1NC(=O)CC1CCC(=O)N1Cc1cccc(F)c1F (stereo not shown) [Example I-046]",
    "Pre-emergence activity against AVEFA (%)": 100
  },
  {
    "compound": "CCS(=O)(=O)NC(=O)CC1CCC(=O)N1Cc1cccc(F)c1F (racemic) [Example I-072]",
    "Pre-emergence activity against AVEFA (%)": 80
  }
]
